- Tested on: MS2 coat protein
- method: apparent KD of MS2 coat protein; higher = weaker reporter binding
- protocol conditions: Eterna round: R107; input ligand: theophylline 20 uM
Label scheme for apparent KD of MS2 coat protein: lower than 30 nM is NO, 30 nM and above is YES.

Request: Please indicate if the recorded apparent KD of MS2 coat protein for ACAUGAGGAUCACCCAUGUAUUACCGGGAAGGAGCGCGUGAAAACGCAGGUAGGUCGCUCGGCGUCGUGCUGUAAAGCACGACGA [#1 Same State - Arginine A Attempt #25 (HarryS)] meets or exceeds 30 nM.
Result: NO

Request: Please indicate if the recorded apparent KD of MS2 coat protein for UGUAUGUGAUUUGAUACCAGACCAGCGGGUGUUACUUGAGGAACACCCAAGUAGGUUUGGGUCCCUUGGCAGCAAAUCGCAUACU [SS Theo B #24 Ms9] meets or exceeds 30 nM.
Result: YES

Request: Please indicate if the recorded apparent KD of MS2 coat protein for CUUCAACAUGAGGAUCACCCAUGUAGUGAUACCAGUCACUCAUACGACCCUUGGCAGCACAUUUUCUGUCGGCAUGUAGACGAUC [theeternabot_sameState_MS2_Theo_A_33] meets or exceeds 30 nM.
Result: YES

Request: Please indicate if the recorded apparent KD of MS2 coat protein for AGUUAUUCGAACAUGGUUGACGAGUGGCAACGAGGACCGGUACGGCCGCCACUCGAAUAAACAUGAGGAUCACCCAUGUACAAAU [T''-M'-T'-T-MS2 - Design 10] meets or exceeds 30 nM.
Result: YES

Request: Please indicate if the recorded apparent KD of MS2 coat protein for AAGACGCCGGGAAGGAGCGCAUCCAAACCACACAUGAGGAUCACCCAUGUAUAAAUAUGCAUGCAGGUAGGUCGCCCGAUGUCCC [Orbemative] meets or exceeds 30 nM.
Result: YES

Request: Please indicate if the recorded apparent KD of MS2 coat protein for AUACAUGAGGAUCACCCAUGUUAUAGUGAAGGAGCGACAUUUAGGUCAGGUAGGUCGCACUAUAGUAUUAUAAUUCUUAGUUCUU [JR_ExcArginiA_Sub018] meets or exceeds 30 nM.
Result: NO

Request: Please indicate if the recorded apparent KD of MS2 coat protein for GGACUAACCAGAAGGAGCGACGCAAGCAGAAACUGCAAUCCUCCGCACGAGGAUCACCCGUGUCAGGUAGGUCGCUGGUUAGUCG [ArgBX 28] meets or exceeds 30 nM.
Result: YES

Request: Please indicate if the recorded apparent KD of MS2 coat protein for CACUACAUGAGGAUCACCCAUGUAUACUGACGAGGACCGGUACGGCCGCCACUCGAACCGAAACCGACUUCAUUCUGUGUACCAU [theeternabot_sameState_MS2_Trp_A_26] meets or exceeds 30 nM.
Result: NO

Request: Please indicate if the recorded apparent KD of MS2 coat protein for AUCCACAGCCGAAGGAGCGCUAUAGGAUGACAUGAGGAUCACCCAUGUGUGUGAUGUGGAUAGCAGGUAGGUCGCGGAGUGGAUU [Exclusion - Arginine B (Freestyle 10)] meets or exceeds 30 nM.
Result: YES

Request: Please indicate if the recorded apparent KD of MS2 coat protein for GGAACGAUCACUUCUUUAUCUAAGGCGGAUACCAGUCCUCGGUUUGACCCUUGGCAGCCGACAACAUGAGGAUCACCCAUGUUCU [theeternabot_exclusion_MS2_Theo_A_25] meets or exceeds 30 nM.
Result: NO

Request: Please indicate if the recorded apparent KD of MS2 coat protein for AUAACUGUCAAGGAAGGUGAUCCAGCAGAUACCAGCUAGGAAACUAGCCCUUGGCAGCUGCAACAUGAGGAUCACCCAUGUAAUA [(T)'-(M)'-(T1)-(T2)-(M1)-(M2)_Design9] meets or exceeds 30 nM.
Result: YES

Request: Please indicate if the recorded apparent KD of MS2 coat protein for GGUAUUGGAACAGAUACCAGUAUCUGUUGAUCCUACAUGAGGAUCACCCAUGUUAGAAAGUACCCUUGGCAGCUGUAAUAAUGCC [Theo B Ex t1] meets or exceeds 30 nM.
Result: YES

Request: Please indicate if the recorded apparent KD of MS2 coat protein for CAAGAACAGCCAGAUCUUGGCAGCUGAGAAGGAGCGCGGGAAGCCGCAGGUAGGUCGCUCAGGAAUACAUGAGGAUCACCCAUGU [Beoror] meets or exceeds 30 nM.
Result: NO

Request: Please indicate if the recorded apparent KD of MS2 coat protein for AUCGUACCUGGUGAUACCAGCAAUUGCUCGUGACAUGAGGAUCACCCAUGUGACCAGUGAUGCCCUUGGCAGCAUGGUCGGUGCA [Same State - Theophylline B (Freestyle 23)] meets or exceeds 30 nM.
Result: YES

Request: Please indicate if the recorded apparent KD of MS2 coat protein for GCACAUGAGGAUCACCCAUGUACAACUGAAGGAGCGAGACAGAACUCAGGUAGGUCGCAGACUGCACAAUUGCGGACGACAUGGG [Exclusion Arginine A GF21] meets or exceeds 30 nM.
Result: YES

Request: Please indicate if the recorded apparent KD of MS2 coat protein for AGCCCGUGAGCGGCCGCCACUGGAGGCUUUGCGCGACAUGAGGAUCACCCAUGUGUGCCCGGCGUUAGGACCGGGUUCGCGUGGU [#1 Same State - Tryptophan B Attempt #18 (HarryS)] meets or exceeds 30 nM.
Result: YES

Request: Please indicate if the recorded apparent KD of MS2 coat protein for ACAUGAAGAACAGCGGUGGGCGCGCUCGAUACCAGUACUUUAAAAUACCCUUGGCAGCGACAUGAGGAUCACCCAUGUGAGAUGA [XTheo A #4] meets or exceeds 30 nM.
Result: NO

Request: Please indicate if the recorded apparent KD of MS2 coat protein for AGUACACGAACGGAUACCAGCCGGACAUGAGGAUCACCCAUGUCCUACCUCUGUUCGGUUGGCCCUUGGCAGCCGUUCGUGUACA [Omei Theo B SS A v8] meets or exceeds 30 nM.
Result: YES

Request: Please indicate if the recorded apparent KD of MS2 coat protein for GGGAGAUAGGCGGCCGCCACUGAUUUUCAUAUAUAUAUAACAUGAGGAUCACCCAUGUAGAUAUACAGGACCGGGCCUAUUUUUU [aaaE] meets or exceeds 30 nM.
Result: NO

Request: Please indicate if the recorded apparent KD of MS2 coat protein for UGACGAUACCUGGAUACCAGCGACAUGAGGAUCACCCAUGUAUGAGGAUCAGCCAUGAUAUGCCCUUGGCAGCCACGAAAGUCUU [VUVMULLIN] meets or exceeds 30 nM.
Result: NO

Request: Please indicate if the recorded apparent KD of MS2 coat protein for AGCCCGGGAGCGGCCGCCACUGGAGGCUUUGCGCGACAUGAGGAUCACCCAUGUGUGCCCGGCGUUAGGACCGGGCUCGCGUGGU [#1 Same State - Tryptophan B Attempt #21 (HarryS)] meets or exceeds 30 nM.
Result: YES

Request: Please indicate if the recorded apparent KD of MS2 coat protein for CCUAUAUAGUCGGCCGCCACUGACUACAUGAGGAUCACCCAUGUAACACGAACAUGGUCCUGGAUCAGGACCGGGACUAUAUAGG [Tryp B Ex t5] meets or exceeds 30 nM.
Result: NO
